system: MDRPA; assay: MIC determination, microdilution broth method;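 also: broth microdilution per NCCLS recommendations, testing Pithecellobium clypearia water or ethanol extracts against multidrug-resistant Pseudomonas aeruginosa, with MIC50 and MIC90 derived statistically from individual MICs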; conditions: Pseudomonas aeruginosa, read-out: MIC (single use), strain P11; EA=P. clypearia 10% ethanol extract
Catalogue of MIC values
Just the number please, in µg/mL, no unit attached.

{"chem_smiles": "C[C@@H](O)[C@H]1C(=O)N2C(C(=O)O)=C(SCCN=CN)C[C@H]12", "observed_value": 8}

Query block: # MIC lookup, item NCC[C@H](O)C(=O)N[C@@H]1C[C@H](N)[C@@H](O[C@H]2O[C@H](CN)[C@@H](O)[C@H](O)[C@H]2O)[C@H](O)[C@H]1O[C@H]1O[C@H](CO)[C@@H](O)[C@H](N)[C@H]1O
Result block: 1

Query block: Entry to check: CCN1CCN(C(=O)N[C@@H](C(=O)N[C@@H]2C(=O)N3C(C(=O)O)=C(CSc4nnnn4C)CS[C@H]23)c2ccc(O)cc2)C(=O)C1=O
Result block: 8

Query block: Entry to check: CC(C)(O/N=C(\C(=O)N[C@@H]1C(=O)N2C(C(=O)[O-])=C(C[n+]3ccccc3)CS[C@H]12)c1csc(N)n1)C(=O)O
Result block: 2

Query block: Entry to check: C[C@H]1COc2c(N3CCN(C)CC3)c(F)cc3c(=O)c(C(=O)O)cn1c23
Result block: 2
